# assay.notes: Oral bioavailability in Beagle dog at 4.5 mg/kg
# Type: ADME, organism-based, Canis lupus familiaris
# experimental.parameters: in vivo
value.type: bioavailability (%)
Quick note: give the figure in %, leave out the unit.

// query Fill in: bioavailability of COc1ccc2nccc(NC(=O)[C@]3(O)CC[C@@H](NCc4cc5c(cn4)OCCO5)CC3)c2n1 is ___
// result 63

----------
# assay.notes: Plasma protein binding in rat
# Type: ADME, cell-free
# experimental.parameters: read-out: PPB (converted)
value.type: fraction unbound
Respond numerically, and do not add a unit to the figure.

// query # input compound: COc1ccc2nccc(NC(=O)[C@]3(O)CC[C@@H](NCc4cc5c(cn4)OCCO5)CC3)c2n1 ; wanted: its fraction unbound
// result 0.268

----------
# assay.notes: Plasma protein binding in dog
# Format: ADME, cell-free, Canis lupus familiaris
# experimental.parameters: read-out: PPB (converted)
value.type: fraction unbound
// no unit string in output, number only

// query Would you mind telling me what fraction unbound value was observed for COc1ccc2nccc(NC(=O)[C@]3(O)CC[C@@H](NCc4cc5c(cn4)OCCO5)CC3)c2n1 ?
// result 0.263
